Assay read-out Ki; system under study: human orexin 1 receptor (Homo sapiens (Human), UniProt O43613).
Sequence (O43613 whole entry): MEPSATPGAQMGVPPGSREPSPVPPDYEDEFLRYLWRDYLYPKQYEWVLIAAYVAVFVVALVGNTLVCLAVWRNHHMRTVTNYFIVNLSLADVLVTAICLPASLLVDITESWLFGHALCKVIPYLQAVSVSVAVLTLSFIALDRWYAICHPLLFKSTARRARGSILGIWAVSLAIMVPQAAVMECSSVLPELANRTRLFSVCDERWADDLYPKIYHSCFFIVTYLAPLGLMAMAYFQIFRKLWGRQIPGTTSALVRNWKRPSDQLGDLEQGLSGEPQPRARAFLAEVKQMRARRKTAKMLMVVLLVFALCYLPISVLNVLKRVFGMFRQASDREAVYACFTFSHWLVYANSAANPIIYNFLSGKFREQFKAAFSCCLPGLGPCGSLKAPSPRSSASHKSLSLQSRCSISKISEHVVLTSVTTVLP

- MOLECULE: "C[C@@H]1[C@H]2C[C@@H](Oc3cnc4cc(F)ccc4n3)[C@H](C2)N1C(=O)c1ccccc1-n1nccn1 (relative stereo)"
  Ki, nM: 7
- MOLECULE: "CCC1C2CC(Oc3ccc(C(F)(F)F)cn3)C(C2)N1C(=O)c1cccc(F)c1-c1ncccn1 (racemic)"
  Ki, nM: 9
- MOLECULE: "C[C@@H]1[C@H]2C[C@@H](Oc3ccc(C(F)(F)F)cn3)[C@H](C2)N1C(=O)c1ccccc1-c1cccc(Br)n1"
  Ki, nM: 15
- MOLECULE: "CC1C2CC(Oc3ccc(C(F)(F)F)cn3)C(C2)N1C(=O)c1ccccc1-c1ncc(F)cn1 (single isomer, unassigned) [Example 19B]"
  Ki, nM: 6

###

Target: rat orexin 1 receptor (Rattus norvegicus)
pKi: −log10 of the molar value.
ASSAY_METRIC: pKi

- COMPOUND: "Cc1cnc(C(=O)N2[C@H](C)[C@@H]3CC[C@H]2[C@H](Oc2ccc(C(F)(F)F)cn2)C3)c(-c2ncccn2)c1"
  ASSAY_METRIC: "pKi"
  VALUE: 8.40
- COMPOUND: "Cc1cnc(C(=O)N2[C@H](C)[C@H]3C[C@@H](Oc4ccc(C(F)(F)F)cn4)[C@@H]2C3)c(-c2ncccn2)c1 (relative stereo)"
  ASSAY_METRIC: "pKi"
  VALUE: 8.40
- COMPOUND: "C[C@@H]1[C@H]2C[C@@H](Oc3ccc(C(F)(F)F)nc3)[C@H](C2)N1C(=O)c1cccc(F)c1-n1nccn1 (relative stereo)"
  ASSAY_METRIC: "pKi"
  VALUE: 6.67
- COMPOUND: "CC1C2CC(Oc3ccc(C(F)(F)F)cn3)C(C2)N1C(=O)c1ccccc1-c1ncc(F)cn1 (racemic) [Example 19]"
  ASSAY_METRIC: "pKi"
  VALUE: 8.00
